- System: cat coronary arteries
- PROCEDURE DETAILS: Cat coronary artery constriction (perfused right coronary artery, constriction induced by endoperoxide analogues)
- Assay type: cell-based
- CONDITION INFO: Felis catus; Table 1; read-out: Inhibits Coronary Artery Contraction by Prostaglandin Endoperoxide Analogues, ID50
- Method: Thromboxane A2 analogues (up to 4 μl of a 2.5 mM solution in ethanol) were tested for their effects on cat coronary arteries continuously prefused with 10 ml Krebs-Henseleit solution as described below. Cats of either sex (2.5-3.5 kg) were anesthetized with sodium pentobarbital (30 mg/kg) given intravenously. […]
ENDPOINT: IC50

Prompt line: Reported IC50 for CCCCCC(O)C=CC1CC2CC(C1CC=CCCCC(=O)O)C2(C)C (single isomer, unassigned) [III (R^1 =R^2 =OH, 16S), Pinane Thromboxane A2, free acid] : what is it?
Response line: 100 nM

====

- TESTED TARGET: Thromboxane Synthetase
- PROCEDURE DETAILS: Thromboxane synthetase inhibition (Table 1)
- CONDITION INFO: read-out: Inhibits Thromboxane Synthetase, ID50
ENDPOINT: IC50 (µM)
Note: unit µM is implicit; provide only the numeric part.

Prompt line: Need IC50 of CCCCCC(O)C=CC1CC2CC(C1CC=CCCCC(=O)O)C2(C)C (single isomer, unassigned) [III (R^1 =R^2 =OH, 16S), Pinane Thromboxane A2, free acid] , thanks.
Response line: 50

Sourced from patent US4308396A
